Item-by-item account of excess molar enthalpy
# TEST SUMMARY: excess molar enthalpy (molar enthalpy of mixing); xn = mol fraction of the nth substance listed
# CONDITION DESCRIPTION: 298.15 K; 101 kPa; Liquid; Calvet calorimetry; x1 = 0.2
Output spec: scalar in kcal/mol, unitless text.

Please review the following examples before continuing.
INSERT INTO measurements (compound, number) VALUES
  ('OCCOCCO [diethylene glycol] + O', -0.291),
  ('CCn1cc[n+](C)c1.COP(=O)([O-])OC [1-ethyl-3-methylimidazolium dimethylphosphate] + CCO', -0.518),
  ('CCn1cc[n+](C)c1.COP(=O)([O-])OC [1-ethyl-3-methylimidazolium dimethylphosphate] + CO', -0.673);

// below: excess molar enthalpy requested for another compound
Using the record for CCn1cc[n+](C)c1.COP(=O)([O-])OC [1-ethyl-3-methylimidazolium dimethylphosphate] + O , report its excess molar enthalpy.
-1.3

Hey, just so you know, these numbers are from the NIST ThermoML archive (doi:10.1021/je400158p).
